- Tested on: GST-14-3-3
- ASSAY PROCEDURE: Peptide capture on streptavidin-agarose beads in filter plate, tryptic digestion, MALDI MS detection of bound GST-14-3-3
- Type: binding
- EXPERIMENTAL SETUP: sample GST-14-3-3; m/z1245.7; signal size of about 1000 or more indicates significant binding
No end group written: not given here. *: point of attachment. Biotin = O=C1N[C@H]2[C@H](CS[C@H]2CCCCC(=O)*)N1
PARAMETER: signal size (number in brackets) of MALDI MS signal

Known signal size (number in brackets) of MALDI MS signal results, listed for orientation:
SUBSTANCE: Biotin-SGSGGTPPPPYTVG [WBP1]
READING: 0

SUBSTANCE: Biotin-PPGMRPPPPGMRRGPPPPGMRPPRP [SmB]
READING: (0)

SUBSTANCE: Biotin-SGSGGAPPTPPPLPP [LD10]
READING: (150)

SUBSTANCE: Biotin-SGSGEQPLT*PVTDL [CDC25]
READING: (0)

Let us move to another entry and its signal size (number in brackets) of MALDI MS signal.
Test system GST-14-3-3; read-out signal size (number in brackets) of MALDI MS signal; what value for Biotin-SGSGVLIKRRST*EL-COOH [COXG] ?
(500)

====

- TEST SYSTEM: GST-FBP21 (a protein having WW domain) (Homo sapiens)
- Construct: GST
- Sequence (O75554 whole entry, the tested form may be a part): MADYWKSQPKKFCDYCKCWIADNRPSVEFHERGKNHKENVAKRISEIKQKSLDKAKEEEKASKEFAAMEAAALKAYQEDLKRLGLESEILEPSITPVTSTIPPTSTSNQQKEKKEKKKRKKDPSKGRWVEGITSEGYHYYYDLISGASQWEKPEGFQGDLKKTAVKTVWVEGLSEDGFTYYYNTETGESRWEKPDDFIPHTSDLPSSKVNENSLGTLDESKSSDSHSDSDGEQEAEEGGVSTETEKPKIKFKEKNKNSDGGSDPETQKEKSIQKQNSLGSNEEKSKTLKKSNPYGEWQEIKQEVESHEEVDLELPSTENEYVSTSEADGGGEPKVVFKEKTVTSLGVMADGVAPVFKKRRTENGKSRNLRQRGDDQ
- ASSAY PROCEDURE: Peptide capture on streptavidin-agarose beads in filter plate, tryptic digestion, MALDI MS detection of bound GST-FBP21
- EXPERIMENTAL SETUP: sample GST-FBP21; m/z 1138.7 or 1152.8; signal size of about 1000 or more indicates significant binding
- Experimental: To make the peptide array, the wells of a multiwell (i.e., 96-well filtration plate from Millipore having a pore size of 1.2 μm) filtration plate were first filled with a known volume of a suspension containing Streptavidin-linked agarose beads (Sigma). […] The immobilized peptides were then ready to be incubated with the protein mixture (e.g., a brain extract). […]
*: point of attachment. Biotin = O=C1N[C@H]2[C@H](CS[C@H]2CCCCC(=O)*)N1
PARAMETER: signal size (number in brackets) of MALDI MS signal

SUBSTANCE: Biotin-SGSGVLIKRRSTEL-OH [COXD]
TEST SYSTEM: GST-FBP21 (a protein having WW domain) (Homo sapiens)
READING: (200)
//
SUBSTANCE: Biotin-SGSGEQPLT*PVTDL [CDC25]
TEST SYSTEM: GST-FBP21 (a protein having WW domain) (Homo sapiens)
READING: (500)
